- assay_info: pH profile of fluorescence / pKa
- Format: physicochemical
- particulars: hydrolytic product of HADP, fluorescence vs pH
readout: pKa

Input Cc1cc(=O)oc2c(F)c(O)c(F)cc12 [DiFMU, 6,8-difluoro-7-hydroxy-4-methylcoumarin, reference compound] . Output pKa: ~4.7

Data provenance is patent US20220202964A1.
